Target: human TLR8 (Homo sapiens)
Sequence (Q9NR97 27-1041): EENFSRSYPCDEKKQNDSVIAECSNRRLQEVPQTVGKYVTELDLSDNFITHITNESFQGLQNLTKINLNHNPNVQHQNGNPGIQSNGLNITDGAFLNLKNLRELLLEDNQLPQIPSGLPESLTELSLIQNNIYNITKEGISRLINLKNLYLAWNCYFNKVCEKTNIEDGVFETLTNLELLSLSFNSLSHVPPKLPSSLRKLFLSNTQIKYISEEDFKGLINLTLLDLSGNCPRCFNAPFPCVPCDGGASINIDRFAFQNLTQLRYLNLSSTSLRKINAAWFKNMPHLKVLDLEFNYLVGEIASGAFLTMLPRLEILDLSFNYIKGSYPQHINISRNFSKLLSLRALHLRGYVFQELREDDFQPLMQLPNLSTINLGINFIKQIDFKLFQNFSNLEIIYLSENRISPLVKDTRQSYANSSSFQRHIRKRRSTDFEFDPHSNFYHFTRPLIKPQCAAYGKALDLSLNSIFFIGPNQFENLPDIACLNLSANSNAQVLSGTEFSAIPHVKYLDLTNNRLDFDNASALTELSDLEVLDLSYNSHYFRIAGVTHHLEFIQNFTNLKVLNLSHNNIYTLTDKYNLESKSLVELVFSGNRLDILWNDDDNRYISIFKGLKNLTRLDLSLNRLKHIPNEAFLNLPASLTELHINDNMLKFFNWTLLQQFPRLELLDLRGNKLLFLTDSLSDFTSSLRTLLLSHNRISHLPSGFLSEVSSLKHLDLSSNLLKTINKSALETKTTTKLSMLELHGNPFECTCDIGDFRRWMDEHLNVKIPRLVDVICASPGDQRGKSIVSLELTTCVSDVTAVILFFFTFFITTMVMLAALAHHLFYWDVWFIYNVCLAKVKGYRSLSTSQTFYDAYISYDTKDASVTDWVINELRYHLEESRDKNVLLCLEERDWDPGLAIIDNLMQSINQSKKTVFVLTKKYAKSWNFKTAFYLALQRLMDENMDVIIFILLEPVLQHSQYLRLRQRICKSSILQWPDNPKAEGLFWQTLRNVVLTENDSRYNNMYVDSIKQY
Test: HEK293-Blue-hTLR-8 cells assay
Settings: HEK293-Blue-hTLR8 cells, R848 stimulation, 20 hrs, SEAP reporter; read-out: HEK/hTLR8 IC50
Experimental: A stable HEK293-Blue-hTLR-8 cell line was purchased from InvivoGen (Cat. #: hkb-htlr8, San Diego, Calif., USA). These cells were originally designed for studying the stimulation of human TLR8 by monitoring the activation of NF-κB. […] The cell culture supernatant SEAP reporter activity was determined using QUANTI-Blue™ kit (Cat. #: rep-qb1, Invivogen, San Diego, Ca, USA) at a wavelength of 640 nm, a detection medium that turns purple or blue in the presence of alkaline phosphatase. […]
MEASURE: pIC50
A value of pIC50 is the negative decimal logarithm of a concentration given in moles per litre.

Study these solved cases before continuing.
[[record]]
compound = "Cc1c2c(nn1C1CN(C[C@H]3CN(c4ccc(C#N)c5ncccc45)C[C@@H](C)O3)C1)CCN(C)C2"
study_target = "human TLR8 (Homo sapiens)"
value_measured = 8.05

[[record]]
compound = "C[C@@H]1CN(c2ccc(C#N)c3ncccc23)C[C@H](CN2CC(n3ncc4c3CCN[C@@H]4C)C2)O1"
study_target = "human TLR8 (Homo sapiens)"
value_measured = 7.55

[[record]]
compound = "C[C@@H]1CN(c2ccc(C#N)c3ncccc23)C[C@H](CN2CC(n3ncc4c3CNCC4)C2)O1"
study_target = "human TLR8 (Homo sapiens)"
value_measured = 8.22

[[record]]
compound = "C[C@@H]1CN(c2ccc(C#N)c3ncccc23)C[C@H](CN2CC(n3cc4c(n3)[C@@H](C)NCC4)C2)O1 (single isomer, unassigned)"
study_target = "human TLR8 (Homo sapiens)"
value_measured = 7.89


Lookup: // Input: `CCN1CCc2cnn(C3CN(C[C@H]4CN(c5ccc(C#N)c6ncccc56)C[C@@H](C)O4)C3)c2C1` . Output its pIC50 only.
Found: 8.30

Lookup: Specify measured pIC50 for `CC(C)N1CCc2cn(C3CN(C[C@H]4CN(c5ccc(C#N)c6ncccc56)C[C@@H](C)O4)C3)nc2C1` .
Found: 8.15

Lookup: Given the compound `Cc1nn(C2CN(C[C@H]3CN(c4ccc(C#N)c5ncccc45)C[C@@H](C)O3)C2)c2c1CN(C)CC2` , write its reported pIC50.
Found: 8.00

Lookup: Return pIC50 (reported value) for this compound: `C[C@@H]1CN(c2ccc(C#N)c3ncccc23)C[C@H](CN2CCC(n3cc4c(n3)CCNC4)CC2)O1`
Found: 7.40

Lookup: Fill in reported pIC50 for this entry: `CC(C)N1CCc2cnn(C3CN(C[C@H]4CN(c5ccc(C#N)c6ncccc56)C[C@@H](C)O4)C3)c2C1`
Found: 8.30

====

// IC50 lookup, one value per entry
Target: UniProt Q9NR96
Sequence (Q9NR96 26-1032): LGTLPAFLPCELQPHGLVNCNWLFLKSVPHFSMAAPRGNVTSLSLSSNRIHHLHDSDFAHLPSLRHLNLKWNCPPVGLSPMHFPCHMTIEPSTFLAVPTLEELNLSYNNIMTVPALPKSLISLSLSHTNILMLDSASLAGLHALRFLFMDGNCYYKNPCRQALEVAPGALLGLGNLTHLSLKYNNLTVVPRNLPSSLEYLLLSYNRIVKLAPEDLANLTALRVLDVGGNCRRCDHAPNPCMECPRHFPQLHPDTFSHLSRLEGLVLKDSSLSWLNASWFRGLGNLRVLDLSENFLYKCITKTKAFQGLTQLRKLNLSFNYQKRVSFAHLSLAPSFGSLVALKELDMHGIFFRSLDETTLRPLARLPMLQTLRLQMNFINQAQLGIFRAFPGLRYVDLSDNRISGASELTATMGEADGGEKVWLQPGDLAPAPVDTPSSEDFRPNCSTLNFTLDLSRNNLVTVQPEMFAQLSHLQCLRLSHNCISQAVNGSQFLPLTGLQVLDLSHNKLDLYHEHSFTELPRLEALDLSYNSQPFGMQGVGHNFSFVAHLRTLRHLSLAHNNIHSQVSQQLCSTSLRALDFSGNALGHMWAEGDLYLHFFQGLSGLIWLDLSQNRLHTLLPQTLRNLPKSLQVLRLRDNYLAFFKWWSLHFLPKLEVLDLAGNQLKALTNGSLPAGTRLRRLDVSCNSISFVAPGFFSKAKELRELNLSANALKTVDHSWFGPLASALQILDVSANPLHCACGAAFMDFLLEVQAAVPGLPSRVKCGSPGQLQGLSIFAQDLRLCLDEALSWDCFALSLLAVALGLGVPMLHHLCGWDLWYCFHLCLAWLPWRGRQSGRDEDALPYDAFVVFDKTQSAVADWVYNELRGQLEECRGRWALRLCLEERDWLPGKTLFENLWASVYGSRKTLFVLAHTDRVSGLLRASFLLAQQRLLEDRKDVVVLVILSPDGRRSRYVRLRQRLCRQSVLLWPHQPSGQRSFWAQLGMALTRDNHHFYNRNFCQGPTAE
Experiment: HEK293-Blue-hTLR-9 cells assay
Type: cell-based
Parameters: host or cells: HEK293 (HEK-Blue hTLR9)
Conditions: HEK293-Blue-hTLR9 cells, ODN2006 stimulation, 20 hrs, SEAP reporter; read-out: HEK/hTLR9 IC50
Numeric only. Scale: nM

[[record]]
compound = "C[C@@H]1CN(c2ccc(C#N)c3ncccc23)C[C@H](CN2CC(n3cc4c(n3)[C@H](C)CNC4)C2)O1 (single isomer, unassigned) [Example 25]"
measure = "IC50"
value_measured = 82

[[record]]
compound = "CC(C)N1CCc2cn(C3CN(C[C@H]4CN(c5ccc(C#N)c6ncccc56)C[C@@H](C)O4)C3)nc2C1 [Example 9]"
measure = "IC50"
value_measured = 172


Lookup: Look up IC50 of C[C@@H]1CN(c2ccc(C#N)c3ncccc23)C[C@H](CN2CC(n3cc4c(n3)CCN[C@H]4C)C2)O1 [Example 23] and report it.
Found: 84

====

Overview of recorded pIC50 for various compounds
Target: TLR9 (Homo sapiens)
Sequence (Q9NR96 26-1032): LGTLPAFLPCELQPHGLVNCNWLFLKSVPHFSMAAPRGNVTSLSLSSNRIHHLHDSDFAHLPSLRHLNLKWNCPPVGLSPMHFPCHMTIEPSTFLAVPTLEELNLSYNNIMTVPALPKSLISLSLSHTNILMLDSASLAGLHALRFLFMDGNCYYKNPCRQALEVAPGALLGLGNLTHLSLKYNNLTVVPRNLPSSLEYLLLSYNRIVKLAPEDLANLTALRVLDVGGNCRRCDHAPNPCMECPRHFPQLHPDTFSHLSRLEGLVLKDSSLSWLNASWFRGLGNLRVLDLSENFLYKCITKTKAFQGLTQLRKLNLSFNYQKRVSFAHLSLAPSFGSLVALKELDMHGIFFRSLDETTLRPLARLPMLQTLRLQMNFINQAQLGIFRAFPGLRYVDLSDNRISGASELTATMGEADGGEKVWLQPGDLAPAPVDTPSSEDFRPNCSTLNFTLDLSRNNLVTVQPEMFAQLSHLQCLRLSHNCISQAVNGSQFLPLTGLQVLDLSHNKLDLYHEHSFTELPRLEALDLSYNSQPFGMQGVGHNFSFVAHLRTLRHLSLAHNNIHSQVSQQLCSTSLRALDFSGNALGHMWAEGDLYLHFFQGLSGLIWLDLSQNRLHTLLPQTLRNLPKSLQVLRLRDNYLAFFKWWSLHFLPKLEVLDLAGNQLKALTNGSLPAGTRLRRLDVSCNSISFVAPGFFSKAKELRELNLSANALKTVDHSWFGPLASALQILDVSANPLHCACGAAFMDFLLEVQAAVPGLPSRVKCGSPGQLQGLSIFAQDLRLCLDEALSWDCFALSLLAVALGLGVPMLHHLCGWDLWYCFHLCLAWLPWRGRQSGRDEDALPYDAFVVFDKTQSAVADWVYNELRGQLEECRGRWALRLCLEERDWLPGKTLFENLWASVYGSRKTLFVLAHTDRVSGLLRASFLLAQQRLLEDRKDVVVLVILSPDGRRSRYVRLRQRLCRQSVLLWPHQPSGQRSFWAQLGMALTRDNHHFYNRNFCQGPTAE
Test: Human PBMC cell-based assay
Set-up: endogenous in cells; host or cells: human PBMC from healthy donor whole blood
Details: CpG ODN 2216 stimulation, overnight, cytokine readout, read-out: hPBMC/TLR9 IC50
Just so you know, pIC50 here is -log10 of the concentration in molar units; reply with that number alone.

Some compounds with known pIC50 results, for comparison:
[[record]]
compound = "C[C@@H]1CN(c2ccc(C#N)c3ncccc23)C[C@H](CN2CC(n3ncc4c3[C@@H](C)NCC4)C2)O1 (single isomer, unassigned) [Example 31]"
study_target = "TLR9 (Homo sapiens)"
value_measured = 6.63

[[record]]
compound = "Cc1c2c(nn1C1CN(C[C@H]3CN(c4ccc(C#N)c5ncccc45)C[C@@H](C)O3)C1)CCN(C)C2 [Example 15]"
study_target = "TLR9 (Homo sapiens)"
value_measured = 6.96

[[record]]
compound = "C[C@@H]1CN(c2ccc(C#N)c3ncccc23)C[C@H](CN2CC(n3cc4c(n3)[C@H](C)CNC4)C2)O1 (single isomer, unassigned) [Example 25]"
study_target = "TLR9 (Homo sapiens)"
value_measured = 6.46


Lookup: Complete the entry with pIC50 for C[C@@H]1Cc2cnn(C3CN(C[C@H]4CN(c5ccc(C#N)c6ncccc56)C[C@@H](C)O4)C3)c2CN1 (single isomer, unassigned) [Example 28]
Found: 6.67

Lookup: # return recorded pIC50 for entry C[C@@H]1CN(c2ccc(C#N)c3ncccc23)C[C@H](CN2CC(n3cc4c(n3)CCN[C@@H]4C)C2)O1 [Example 21]
Found: 7.04

Lookup: Tell me measured pIC50 for C[C@@H]1Cc2nn(C3CN(C[C@H]4CN(c5ccc(C#N)c6ncccc56)C[C@@H](C)O4)C3)cc2CN1 [Example 17] please.
Found: 6.95
